These data points were gathered from patent US11505543B2.

system: recombinant NL4-3 virus (nef section replaced with Renilla luciferase gene) in MT-2 cells; test: HIV cell culture assay (antiviral activity, luciferase readout); assay type: cell-based; conditions: MT-2 cells infected for 4-5 days with recombinant NL4-3 Renilla luciferase virus, serial dilutions of compound
experimentalReadout: EC50 (nM)
Dear colleague, please return just the value in nM, with no unit written.

### Prompt I would be grateful if you could share the reported EC50 for O=C(Cn1nc(C(F)F)c2c1C(F)(F)[C@@H]1C[C@H]21)N[C@@H](Cc1cc(F)cc(F)c1)c1nc2cc(-c3ccccc3F)ccc2c(=O)n1-c1ccc(Cl)c2c(NS(=O)(=O)C3CC3)nn(CC(F)F)c12 (atropisomer, axis not shown; (aR)) [Example 8] .
### Response 0.613

### Prompt Would you mind doing Cn1nc(NS(C)(=O)=O)c2c(Cl)ccc(-n3c([C@H](Cc4cc(F)cc(F)c4)NC(=O)Cn4nc(C(F)F)c5c4C(F)(F)[C@@H]4C[C@H]54)nc4cc(-c5ccccc5F)ccc4c3=O)c21 (single isomer, unassigned) [Example 6] as well?
### Response 0.3

### Prompt Request: CC(C(=O)N[C@@H](Cc1cc(F)cc(F)c1)c1nc2cc(-c3ccccc3F)ccc2c(=O)n1-c1ccc(Cl)c2c(NS(=O)(=O)C3CC3)nn(CC(F)F)c12)n1ccc(C2CC2)n1 (single isomer, unassigned) [Example 138]
### Response 9

### Prompt Then this molecule: Cn1nc(NS(C)(=O)=O)c2c(Cl)ccc(-n3c([C@H](Cc4cc(F)cc(F)c4)NC(=O)Cn4ccc(C5CC5)n4)nc4cc(-c5ccccc5F)ccc4c3=O)c21 (single isomer, unassigned) [Example 3]
### Response 63.1

### Prompt Next entry: CC(C(=O)N[C@@H](Cc1cc(F)cc(F)c1)c1nc2cc(-c3ccccc3F)ccc2c(=O)n1-c1ccc(Cl)c2c(NS(=O)(=O)C3CC3)nn(CC(F)F)c12)n1ccc(C2CC2)n1 (single isomer, unassigned) [Example 133]
### Response 1.6

### Prompt Lookup Cn1nc(NS(C)(=O)=O)c2c(Cl)ccc(-n3c([C@H](Cc4cc(F)cc(F)c4)NC(=O)Cn4ccc(C5CC5)n4)nc4cc(-c5ccccc5F)ccc4c3=O)c21 (single isomer, unassigned) [Example 4]
### Response 1.1
